- System tested: T1, TRBC1 (T cell receptor beta-chain constant domain 1), interaction partner protein injected in SPR (human, UniProt P01850 1-129, limits assumed)
- T1 construct: also called TCR beta constant region 1
- T1 sequence (P01850 1-129 limits assumed): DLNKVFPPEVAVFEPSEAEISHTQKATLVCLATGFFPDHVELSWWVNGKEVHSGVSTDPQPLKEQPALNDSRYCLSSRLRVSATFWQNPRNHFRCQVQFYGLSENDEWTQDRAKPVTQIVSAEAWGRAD
- Experiment notes: SPR (Biacore T200), antibody captured on anti-human IgG chip, TRBC1 injected, 25 C, 1:1 Langmuir fit
I'd be grateful if you could share measured kon for these entries.
Numbers only, in M⁻¹ s⁻¹.

Worked cases, kon given:
Binder	kon (M⁻¹ s⁻¹)
Mut13 (antibody, V domains shown, Variant of hJOVI-1; captured by anti-human IgG in SPR; also called VH T28K, Y32F, A100N; VL N35K) VH: QVQLVQSGAEVKKPGASVKVSCKASGYKFTGFVMHWVRQAPGQGLEWMGFINPYNDDIQSNERFRGRVTMTRDTSISTAYMELSRLRSDDTAVYYCARGNGYNFDGAYRFFDFWGQGTMVTVSS VL: DIVMTQSPLSLPVTPGEPASISCRSSQRLVHSNGKTYLHWYLQKPGQSPRLLIYRVSNRFPGVPDRFSGSGSGTDFTLKISRVEAEDVGVYYCSQSTHVPYTFGQGTKLEIK	107000
Mut14 (antibody, V domains shown, Variant of hJOVI-1; IgG format; also called VH T28K, Y32F, A100N, A107S) VH: QVQLVQSGAEVKKPGASVKVSCKASGYKFTGFVMHWVRQAPGQGLEWMGFINPYNDDIQSNERFRGRVTMTRDTSISTAYMELSRLRSDDTAVYYCARGNGYNFDGSYRFFDFWGQGTMVTVSS VL: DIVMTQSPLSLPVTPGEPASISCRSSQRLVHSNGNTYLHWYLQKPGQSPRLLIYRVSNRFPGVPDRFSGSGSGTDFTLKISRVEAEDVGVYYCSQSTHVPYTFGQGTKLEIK	90000

// next item, kon requested
Read off the recorded kon for hJOVI-1 (humanised JOVI-1 antibody, reference antibody) (antibody, V domains shown, Tested in IgG format and captured by anti-human IgG in SPR; also called aTRBC1; anti-TRBC1 antibody hJOVI-1) VH: QVQLVQSGAEVKKPGASVKVSCKASGYTFTGYVMHWVRQAPGQGLEWMGFINPYNDDIQSNERFRGRVTMTRDTSISTAYMELSRLRSDDTAVYYCARGAGYNFDGAYRFFDFWGQGTMVTVSS VL: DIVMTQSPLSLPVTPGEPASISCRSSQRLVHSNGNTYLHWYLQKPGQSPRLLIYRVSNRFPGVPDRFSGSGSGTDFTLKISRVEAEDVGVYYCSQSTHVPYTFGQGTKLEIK
238000

The origin of these recorded values is patent US20230109275A1.
